pKi: −log10 of the molar value.
A compilation of pKi values for Glycogen synthase kinase-3 beta (Homo sapiens) from the published literature.

Provide value of pKi for this record tested with Glycogen synthase kinase-3 beta (Homo sapiens): Cc1cnc(NC(CO)C(C)C)nc1-c1c[nH]c(C(=O)NC(CO)c2ccccc2)c1 (stereo not drawn)
< 6.00

New cases:
Provide value of pKi for this record tested with Glycogen synthase kinase-3 beta (Homo sapiens): Cc1cc(Nc2nc(-c3cccc4ccccc34)nc3ccccc23)n[nH]1
> 7.00

Provide value of pKi for this record tested with Glycogen synthase kinase-3 beta (Homo sapiens): Clc1ccc(COc2cccc(Nc3nccc(-c4nccs4)n3)c2)cc1Cl
< 6.00

Provide value of pKi for this record tested with Glycogen synthase kinase-3 beta (Homo sapiens): Cc1cc(Nc2nc(Sc3nccn3C)nc3ccccc23)n[nH]1
5.15 to 6.00

Provide value of pKi for this record tested with Glycogen synthase kinase-3 beta (Homo sapiens): O=[N+]([O-])c1ccc(Nc2nccc(-c3nccs3)n2)cc1
> 7.00

Provide value of pKi for this record tested with Glycogen synthase kinase-3 beta (Homo sapiens): FC(F)(F)c1cccc(Nc2nccc(-c3nccs3)n2)c1
> 7.00
